- TGT: mouse GLP-1 receptor (mouse) (UniProt O35659)
- Sequence (O35659 22-463): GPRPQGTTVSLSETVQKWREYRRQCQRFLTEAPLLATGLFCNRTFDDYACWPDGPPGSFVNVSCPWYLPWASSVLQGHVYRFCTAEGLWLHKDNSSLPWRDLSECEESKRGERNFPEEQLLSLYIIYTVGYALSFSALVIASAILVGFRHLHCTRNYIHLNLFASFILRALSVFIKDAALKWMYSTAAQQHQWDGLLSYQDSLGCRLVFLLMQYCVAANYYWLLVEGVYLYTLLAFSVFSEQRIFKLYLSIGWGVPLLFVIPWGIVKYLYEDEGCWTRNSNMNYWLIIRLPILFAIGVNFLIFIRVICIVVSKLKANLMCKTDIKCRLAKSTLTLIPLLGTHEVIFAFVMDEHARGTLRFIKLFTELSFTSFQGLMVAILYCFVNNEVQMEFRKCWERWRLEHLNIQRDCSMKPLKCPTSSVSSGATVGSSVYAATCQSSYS
- PROCEDURE_DETAILS: cell-based or functional assay
TEST_READOUT: log10 of cAMP EC50 (log10 of the value in nM)
Could you please treat all values as log10 of cAMP EC50 in nM?

binder="IP342 (Fc fusion) YSEGTFTSDYSAAAEAAAAAAFAAWLAAAAGGGGGSGGGGSGGGGSGGGGSACPPC" result_number=2.83
binder="IP339 (Fc fusion) YSEGTFTSDYSKLLEKEAQRLFIEWLLAGGGGGGGSGGGGSGGGGSGGGGSGGGGSGGGGSA" result_number=0.20
binder="IP311 (Fc fusion) YSEGTFISDYSIALAAAAIDDFVNWLLAGGGGGGGSGGGGSGGGGSGGGGSATHTCPPC" result_number=3.18
binder="IP330 (Fc fusion) YSEGTFTSDYSKLLERQAIDEFIALLLKGGGGGGGSGGGGSGGGGSGGGGSGGGGSGGGGSA" result_number=0.74

Return reported log10 of cAMP EC50; argument: IP413 (Fc fusion) YSEGTFTSDYSKLLEEEASRLFIEWLLAGGGGGGSGGGGSGGGGSGGGGSATHTCPPC
0.95

Return reported log10 of cAMP EC50; argument: IP348 (Fc fusion) YSEGTFTSDYSKLLERQAIDEFIASLLKGGGGGGGSGGGGSGGGGSGGGGSGGGGSGGGGSA
-0.05

Return reported log10 of cAMP EC50; argument: IP332 (Fc fusion) YSEGTFTSDYSIALAAAAQQDFVNWLLAGGGGGGGSGGGGSGGGGSGGGGSGGGGSGGGGSA
2.88

Return reported log10 of cAMP EC50; argument: IP381 (Fc fusion) YSEGTFTSDYSKLLEEEAVRLFIEYLLAGGGGGGSGGGGSGGGGSGGGGSATHTCPPC
-0.14

Return reported log10 of cAMP EC50; argument: IP364 (Fc fusion) YSEGTFTSDFSKLLERQAIDEFIAWLLKGGAAAGGSGSTASSGSGSATGGGGAATHTCPPC
-0.16

Data origin, for the record: patent US20160185837A1
